From: patent US20160296499A1

biological target: bovine vesicular acetylcholine transporter (VAChT) (Bos taurus); test: Radioligand Binding Assay; conditions: Bovine binding Ki, CHO-K1 membranes with recombinant bovine VAChT, [3H]Compound X6 0.3 nM
Sequence (E1BK36 1-524): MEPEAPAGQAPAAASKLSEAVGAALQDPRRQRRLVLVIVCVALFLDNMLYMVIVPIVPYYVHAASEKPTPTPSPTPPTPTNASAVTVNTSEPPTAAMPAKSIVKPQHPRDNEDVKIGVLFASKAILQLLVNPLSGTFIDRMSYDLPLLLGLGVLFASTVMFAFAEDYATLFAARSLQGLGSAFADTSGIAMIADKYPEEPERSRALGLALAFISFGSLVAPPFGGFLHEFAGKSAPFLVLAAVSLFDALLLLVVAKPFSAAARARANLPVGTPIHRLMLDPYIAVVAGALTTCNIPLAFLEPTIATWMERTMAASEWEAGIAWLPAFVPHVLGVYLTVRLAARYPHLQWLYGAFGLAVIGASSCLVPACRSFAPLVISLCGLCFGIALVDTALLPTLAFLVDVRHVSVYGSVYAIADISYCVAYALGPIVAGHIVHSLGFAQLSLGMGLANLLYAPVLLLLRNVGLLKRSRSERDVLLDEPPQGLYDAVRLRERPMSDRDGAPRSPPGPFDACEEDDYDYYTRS
Give measured pKi for each item. Keep answers brief.
Give bare numbers, as −log10 of the molar value.

[
  {
    "smiles": "O=C(NCc1ccnc(Cl)c1)N1CC2(CCN(C/C=C/c3ccc(Cl)cc3)CC2)c2c1ccc(OC(F)(F)F)c2Cl",
    "pKi": 6.25
  },
  {
    "smiles": "O=C(NCc1ccnc(Cl)c1)N1CC2(CCN(C/C=C/c3ccc(F)cc3)CC2)c2cc(Cl)c(Cl)cc21",
    "pKi": 6.78
  },
  {
    "smiles": "O=C(NCc1ccnc(Cl)c1)N1CC2(CCN(C/C=C/c3ccc(F)cc3)CC2)c2cc(OC(F)(F)F)ccc21",
    "pKi": 6.26
  }
]

Okay, now this compound:
Enquiry: Output measured pKi for this item: O=C(NCc1ccnc(Br)c1)N1CC2(CCN(C/C=C/c3ccc(Cl)c(Cl)c3)CC2)c2c1ccc1scnc21
Return: 6.04
